biological target: human lung fibroblast collagenase (Homo sapiens); construct: from culture supernatants from the human lung fibroblast cell line, WI-38; endogenous in cells; host or cells: WI-38 human lung fibroblast cell line (culture supernatant); assay: Collagenase inhibitor assay, human lung fibroblast collagenase (14C-collagen fibril degradation); type: biochemical; conditions: collagenase from WI-38 culture supernatants; * = +mercaptoethanol; read-out: IC50, Inhibition of human lung fibroblast collagenase, +mercaptoethanol
observation-type: IC50 (nM)
Give bare numbers, in nM.

Looking up CNC(=O)[C@H](Cc1ccc(OC)cc1)NC(=O)C(Cc1ccc(Cl)cc1S)CC(C)C (stereo partly shown) , I see its IC50 listed as 250

* * *

target: human lung fibroblast collagenase (Homo sapiens, UniProt P03956); construct: from culture supernatants from the human lung fibroblast cell line, WI-38; endogenous in cells; host or cells: WI-38 human lung fibroblast cell line (culture supernatant); experiment: Collagenase inhibitor assay, human lung fibroblast collagenase (14C-collagen fibril degradation); format: biochemical; conditions: collagenase from WI-38 culture supernatants; without mercaptoethanol; read-out: IC50, Inhibition of human lung fibroblast collagenase
Sequence (P03956 100-469): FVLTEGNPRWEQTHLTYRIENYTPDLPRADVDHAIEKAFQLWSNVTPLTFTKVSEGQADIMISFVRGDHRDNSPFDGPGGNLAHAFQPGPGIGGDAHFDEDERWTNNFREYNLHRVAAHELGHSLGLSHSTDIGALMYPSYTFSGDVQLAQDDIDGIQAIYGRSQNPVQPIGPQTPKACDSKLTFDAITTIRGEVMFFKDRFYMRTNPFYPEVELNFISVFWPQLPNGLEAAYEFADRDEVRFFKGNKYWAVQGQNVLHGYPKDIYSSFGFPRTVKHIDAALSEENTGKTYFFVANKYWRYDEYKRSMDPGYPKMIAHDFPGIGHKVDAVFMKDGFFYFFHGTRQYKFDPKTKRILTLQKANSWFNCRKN
observation-type: IC50 (nM)
Numbers only, in nM.

Bench note, human lung fibroblast collagenase (Homo sapiens, UniProt P03956): entry CNC(=O)[C@H](Cc1ccc(OC)cc1)NC(=O)C(Cc1ccc(Cl)cc1S)CC(C)C (stereo partly shown) , its IC50 = 1800

Sourced from patent US5124322A
